- study.target: T1, CTLA4-Fc fusion protein (human, biotinylated where used as CTLA4-Fc-Biotin (Examples 5.1-5.3))
- T1 construct: expressed in HEK293 cells; also called human CTLA4-Fc protein; CTLA4-Fc antigen protein
- assay.summary: competitive ELISA: CD80-Fc-Biotin signal on coated CTLA4-Fc with 500 ng VHH/well; competitor CD80-Fc-Biotin
- Method: SA-HRP (purchased from Sigma) was added and allowed to react for 1 hour at room temperature. After adding chromogenic solution, absorbance was read at 405 nm wavelength.
metric: OD (OD405)
Reply with just the number (in OD405).

Solved cases below.
{"columns": ["binder", "unit.abbreviation", "OD"],
 "data": [
  ["CTLA4 heavy chain single domain antibody No. 128 (VHH, Camel VHH expressed in E. coli (PET32b), nickel-purified) VHH: QVQLQESGGGSVQAGGSLKLSCAASGYTDYTYNTSCMGWFRQTPGKERERVATVNKVGSTIYADSVKGRFTISKDNVKNTLYLQMNSLKPEDTAMYYCAARGSWSCSQFWGDFGYWGQGTQVTVSS", "OD405", 0.893],
  ["CTLA4 heavy chain single domain antibody No. 155 (VHH, Camel VHH expressed in E. coli (PET32b), nickel-purified) VHH: QVQLQESGGGPVQAGGSLRLSCAVSKYPYSGSCMGWFRQAPGKEREGVAAMFTGTGSTYYADSVKGRFTISQNVAKNTLDLQMNSLKPEDTAMYYCAVDLLPRSTRCLDYGLRTYNYWGQGTQVTVSS", "OD405", 0.746],
  ["CTLA4 heavy chain single domain antibody No. J78 (VHH, Camel VHH expressed in E. coli (PET32b), nickel-purified) VHH: QVQLQESGGGSVQAGGSLRLSCTVSQHTSRYYYMAWFRQAPGKEREGVASIWTGGGTPGYADSAKGRFTISADNAKNTIYLQMNSLKPEDTAMYYCAADDRGGRWSLGTMAVGGYKYWGQGTQVTVSS", "OD405", 2.41],
  ["CTLA4 heavy chain single domain antibody No. J17 (VHH, Camel VHH expressed in E. coli (PET32b), nickel-purified) VHH: QVQLQESGGGSVQAGGSLRLSCAASGFTLSSYTMTWLRQAPGKGLEWVSTINSGGSTSYADSVKGRFAISRDNAKNILYLQLNSLEIEDTGMYYCQGGLTQRGQGTQVTVSS", "OD405", 2.53],
  ["CTLA4 heavy chain single domain antibody No. C1 (VHH, Camel VHH expressed in E. coli (PET32b), nickel-purified, detected by anti-His tag antibody) VHH: QVQLQESGGGSVQAGGSLGLSCAASGYIYSAYCMGWFRQAPGKEREGVAAIYLGGGSTYYADSVKGRFTISQDIAKNTLYLQMNSLKPEDTAMYSCAADVIPTETCLGGSWSGPFGYWGQGTQVTVSS", "OD405", 0.054]
]}

Briefly, OD measured for CTLA4 heavy chain single domain antibody No. J35 (VHH, Camel VHH expressed in E. coli (PET32b), nickel-purified) VHH: QVQLQESGGGSVQAGGSLRLSCAASGYTSGYYVMGWYRQAPGKLREFVSSIDSNGGTMYADSVKGRFTISQDNAKNTAHLQMNSLKPEDTAMYYCKRDSPGNFYWGQGTQVTVSS : 2.57

Briefly, OD measured for CTLA4 heavy chain single domain antibody No. C2 (VHH, Camel VHH expressed in E. coli (PET32b), nickel-purified) VHH: QVQLQESGGGSVQPGGSLRLSCAVSGFTFSGYCMAWVRQAPGKGLEWVASIHRRDGSTDYADSVKGRFTISKDNSKNTLYLQMSSLKPEDTAVYYCAADPARLSCSGRVNSEYKYRGQGTQVTVSS : 2.52

Briefly, OD measured for CTLA4 heavy chain single domain antibody No. C22 (VHH, Camel VHH expressed in E. coli (PET32b), nickel-purified) VHH: QVQLQESGGGSVQAGGSLRLSCTVSQHTSRYYYMAWFRQAPGKEREGVASIWTGGGTPGYADSAKGRFTISTDNAKNTIYLQMNSLKPEDTAMYYCAADDRGGRWSLGTMAVGGYKYWGQGTQVTVSS : 2.47
